# Tested Target: T1, human SIRPβ1 isoform 1 on cells (human, UniProt O00241 30-398)
# T1 construct: On CHO cells (low level), on BWZ/BW5147.G.1.4 cells (reporter cells co-express human DAP12) or on primary human myeloid cells; also called huSIRPβ1; BWZ-huSIRPβ1
# T1 sequence (O00241 30-398): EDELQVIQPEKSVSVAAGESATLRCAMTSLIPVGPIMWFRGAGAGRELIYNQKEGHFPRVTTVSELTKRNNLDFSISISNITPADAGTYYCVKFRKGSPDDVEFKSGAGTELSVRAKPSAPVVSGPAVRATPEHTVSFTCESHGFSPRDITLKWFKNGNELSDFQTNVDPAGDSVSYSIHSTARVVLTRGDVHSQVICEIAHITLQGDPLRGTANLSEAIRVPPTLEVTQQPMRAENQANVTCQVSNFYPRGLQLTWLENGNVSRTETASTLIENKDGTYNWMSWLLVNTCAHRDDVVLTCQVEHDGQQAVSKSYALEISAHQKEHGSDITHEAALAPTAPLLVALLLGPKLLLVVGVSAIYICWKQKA
# Assay Info: flow cytometry titration, BWZ-huSIRPβ1 cells
Value Type: pEC50
Scale: negative log10 of molar concentration, which is what pEC50 denotes.

Past entries and their recorded results:
Q: So what's the measured pEC50 for this one? SB-2-8 (antibody, V domains shown, IgG) VH: QVQLVESGGGVVQPGRSLRLSCAASGFTFLDYGMHWVRQAPGKGLEWVSAISAFAGSTYADSVKGRFTISRDNSKNTLYLQMNSLRAEDTAVYYCARDQTAAAAIWGMDVWGQGTTVTVSS VL: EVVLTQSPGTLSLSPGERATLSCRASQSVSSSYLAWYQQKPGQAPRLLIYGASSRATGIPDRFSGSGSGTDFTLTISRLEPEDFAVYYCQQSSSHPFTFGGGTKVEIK
Result: 9.69

Q: Query SB-1-3 (antibody, V domains shown, IgG) VH: EVQLVESGGGLVKPGGSLRLSCAASGFTFSAYGMNWVRQAPGKGLEWVSAITSSGRSTYYADSVKGRFTISRDNSKNTLYLQMNSLRAEDTAVYYCAKDFTEVVGWLGMDVWGQGTTVTVSS VL: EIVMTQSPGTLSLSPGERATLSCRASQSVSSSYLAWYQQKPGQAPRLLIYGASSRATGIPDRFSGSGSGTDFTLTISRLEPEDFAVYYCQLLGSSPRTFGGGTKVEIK next
Result: 10.55

Please turn your attention to the following entry.
Q: So what's the measured pEC50 for this one? SB-40-20 (antibody, V domains shown, IgG) VH: QVQLVQSGAEVKKPGASVKVSCKASGYTFTSFYISWVRQAPGQGLEWMGIINPSSGHTNYAQKLQGRVTMTTDTSTSTAYMELSSLRSEDTAVYYCARDTGEYSYSPHGMDVWGQGTTVTVSS VL: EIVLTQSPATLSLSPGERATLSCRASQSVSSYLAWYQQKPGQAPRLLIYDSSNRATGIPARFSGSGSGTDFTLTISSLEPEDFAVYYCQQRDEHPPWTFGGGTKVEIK
Result: 8.06
